Experiment: Cytostatic activity against HEL cells after 3 days by Coulter counting method
Type: cell-based
Settings: human
metric: CC50 at 72 h

**Q:** Look up and report measured CC50 at 72 h for this entry: CC(C)OC(=O)[C@H](C)NP(=O)(CO[C@@H]1C[C@@H](O)[C@H](n2cnc3c(=O)[nH]c(N)nc32)C1)N[C@@H](C)C(=O)OC(C)C
**A:** > 175 µM

**Q:** Look up and report measured CC50 at 72 h for this entry: CC(C)OC(=O)[C@H](C)NP(=O)(CO[C@H]1C[C@@H](n2cnc3c(=O)[nH]c(N)nc32)C[C@@H]1O)N[C@@H](C)C(=O)OC(C)C
**A:** > 175 µM

**Q:** Look up and report measured CC50 at 72 h for this entry: Cc1cn([C@@H]2C[C@H](OCP(=O)(O)O)[C@@H](O)C2)c(=O)[nH]c1=O
**A:** 69.4 µM

**Q:** Look up and report measured CC50 at 72 h for this entry: Nc1nc2c(ncn2[C@@H]2C[C@H](OCP(=O)(O)O)[C@@H](O)C2)c(=O)[nH]1
**A:** > 289 µM

**Q:** Look up and report measured CC50 at 72 h for this entry: Nc1nc2c(ncn2[C@@H]2C[C@H](OCP(=O)(O)O)C[C@H]2O)c(=O)[nH]1
**A:** > 289 µM

**Q:** Look up and report measured CC50 at 72 h for this entry: Nc1nc2c(ncn2COC(CO)CO)c(=O)[nH]1
**A:** > 391 µM

**Q:** Look up and report measured CC50 at 72 h for this entry: Nc1nc2c(ncn2COCCO)c(=O)[nH]1
**A:** > 444 µM

**Q:** Look up and report measured CC50 at 72 h for this entry: O=c1[nH]c(=O)n([C@H]2C[C@H](O)[C@@H](CO)O2)cc1/C=C/Br
**A:** > 300 µM

**Q:** Look up and report measured CC50 at 72 h for this entry: Nc1ccn(C[C@@H](CO)OCP(=O)(O)O)c(=O)n1
**A:** > 358 µM

----------
Test: Cytotoxicity against HEL cells assessed as alteration in cell morphology after 3 days by microscopic analysis
Assay type: cell-based
Conditions: human
So I've got a bunch of molecules here, and I need their MCC at 72 h values.

**Q:** Look up and report measured MCC at 72 h for this entry: O=c1[nH]c(=O)n([C@H]2C[C@H](O)[C@@H](CO)O2)cc1/C=C/Br
**A:** > 300 µM

**Q:** Look up and report measured MCC at 72 h for this entry: Nc1nc2c(ncn2COC(CO)CO)c(=O)[nH]1
**A:** > 391 µM

**Q:** Look up and report measured MCC at 72 h for this entry: Cc1cn([C@@H]2C[C@H](OCP(=O)(O)O)[C@@H](O)C2)c(=O)[nH]c1=O
**A:** > 247 µM

**Q:** Look up and report measured MCC at 72 h for this entry: Cc1cn([C@@H]2C[C@H](OCP(=O)(O)O)C[C@H]2O)c(=O)[nH]c1=O
**A:** > 247 µM

**Q:** Look up and report measured MCC at 72 h for this entry: Nc1ccn([C@@H]2C[C@H](OCP(=O)(O)O)[C@@H](O)C2)c(=O)n1
**A:** > 327 µM

**Q:** Look up and report measured MCC at 72 h for this entry: CC(C)OC(=O)[C@H](C)NP(=O)(CO[C@@H]1C[C@@H](O)[C@H](n2cnc3c(=O)[nH]c(N)nc32)C1)N[C@@H](C)C(=O)OC(C)C
**A:** > 175 µM

**Q:** Look up and report measured MCC at 72 h for this entry: CC(C)OC(=O)[C@H](C)NP(=O)(CO[C@H]1C[C@@H](n2cnc3c(=O)[nH]c(N)nc32)C[C@@H]1O)N[C@@H](C)C(=O)OC(C)C
**A:** > 175 µM

**Q:** Look up and report measured MCC at 72 h for this entry: Nc1ccn(C[C@@H](CO)OCP(=O)(O)O)c(=O)n1
**A:** > 358 µM
